Cited source: ChEMBL document CHEMBL5537166

test: Half life in mouse at 1 mg/kg, iv measured upto 60 mins by LC-MS/MS analysis; format: ADME, organism-based; conditions: in vivo
Test readout: half-life (h)
One number for each entry, in h.

Item smiles	half-life / h
Cc1ncsc1-c1ccc([C@H](C)NC(=O)[C@@H]2C[C@@H](O)CN2C(=O)[C@@H](c2cc(N3CCN(C[C@H]4C[C@H](Oc5cc(N6C7CCC6CN(c6cc(-c8ccccc8O)nnc6N)C7)ccn5)C4)CC3)no2)C(C)C)cc1	3.7

Dear reader, for each entry below, please note its half-life.
1. Cc1ncsc1-c1ccc([C@H](C)NC(=O)[C@@H]2C[C@@H](O)CN2C(=O)[C@@H](c2cc(N3CCN(CCN4CCC(O[C@H]5C[C@H](Oc6cc(N7C8CCC7CN(c7cc(-c9ccccc9O)nnc7N)C8)ccn6)C5)CC4)CC3)no2)C(C)C)cc1
2. Cc1ncsc1-c1ccc([C@H](C)NC(=O)[C@@H]2C[C@@H](O)CN2C(=O)[C@@H](c2cc(OCC#Cc3ccc(O[C@H]4C[C@H](Oc5cc(N6C7CCC6CN(c6cc(-c8ccccc8O)nnc6N)C7)ccn5)C4)cn3)no2)C(C)C)cc1
3. Cc1ncsc1-c1ccc([C@H](C)NC(=O)[C@@H]2C[C@@H](O)CN2C(=O)[C@@H](c2cc(N3CCC(CN4CCC(Oc5cc(N6C7CCC6CN(c6cc(-c8ccccc8O)nnc6N)C7)ccn5)CC4)CC3)no2)C(C)C)cc1

Response:
[13, 1.5, 6.7]

----------
I'd be grateful if you could share measured clearance for these entries.
assay: Clearance in mouse at 1 mg/kg, iv measured upto 60 mins by LC-MS/MS analysis; assay type: ADME, organism-based; conditions: in vivo, 1 h
Answers are plain numbers, in mL/min/kg.

Item smiles	clearance / mL/min/kg
Cc1ncsc1-c1ccc([C@H](C)NC(=O)[C@@H]2C[C@@H](O)CN2C(=O)[C@@H](c2cc(OCCN3CCC(O[C@H]4C[C@H](Oc5cc(N6C7CCC6CN(c6cc(-c8ccccc8O)nnc6N)C7)ccn5)C4)CC3)no2)C(C)C)cc1	22

# context switch: different compound, same clearance
The recorded clearance for `Cc1ncsc1-c1ccc([C@H](C)NC(=O)[C@@H]2C[C@@H](O)CN2C(=O)[C@@H](c2cc(N3CCC(CN4CCC(O[C@H]5C[C@H](Oc6cc(N7C8CCC7CN(c7cc(-c9ccccc9O)nnc7N)C8)ccn6)C5)CC4)CC3)no2)C(C)C)cc1` is 9.6

----------
molecular target: von Hippel-Lindau disease tumor suppressor/SWI/SNF-related matrix-associated actin-dependent regulator of chromatin subfamily A member 4 (Homo sapiens, UniProt P51532+P40337); experiment: PROTAC activity at VHL/ BRG1 in human SW1573 cells assessed as induction of BRG1 degradation incubated for 22 hrs by Western blotting analysis; type: cell-based
Sequence (P51532 whole entry): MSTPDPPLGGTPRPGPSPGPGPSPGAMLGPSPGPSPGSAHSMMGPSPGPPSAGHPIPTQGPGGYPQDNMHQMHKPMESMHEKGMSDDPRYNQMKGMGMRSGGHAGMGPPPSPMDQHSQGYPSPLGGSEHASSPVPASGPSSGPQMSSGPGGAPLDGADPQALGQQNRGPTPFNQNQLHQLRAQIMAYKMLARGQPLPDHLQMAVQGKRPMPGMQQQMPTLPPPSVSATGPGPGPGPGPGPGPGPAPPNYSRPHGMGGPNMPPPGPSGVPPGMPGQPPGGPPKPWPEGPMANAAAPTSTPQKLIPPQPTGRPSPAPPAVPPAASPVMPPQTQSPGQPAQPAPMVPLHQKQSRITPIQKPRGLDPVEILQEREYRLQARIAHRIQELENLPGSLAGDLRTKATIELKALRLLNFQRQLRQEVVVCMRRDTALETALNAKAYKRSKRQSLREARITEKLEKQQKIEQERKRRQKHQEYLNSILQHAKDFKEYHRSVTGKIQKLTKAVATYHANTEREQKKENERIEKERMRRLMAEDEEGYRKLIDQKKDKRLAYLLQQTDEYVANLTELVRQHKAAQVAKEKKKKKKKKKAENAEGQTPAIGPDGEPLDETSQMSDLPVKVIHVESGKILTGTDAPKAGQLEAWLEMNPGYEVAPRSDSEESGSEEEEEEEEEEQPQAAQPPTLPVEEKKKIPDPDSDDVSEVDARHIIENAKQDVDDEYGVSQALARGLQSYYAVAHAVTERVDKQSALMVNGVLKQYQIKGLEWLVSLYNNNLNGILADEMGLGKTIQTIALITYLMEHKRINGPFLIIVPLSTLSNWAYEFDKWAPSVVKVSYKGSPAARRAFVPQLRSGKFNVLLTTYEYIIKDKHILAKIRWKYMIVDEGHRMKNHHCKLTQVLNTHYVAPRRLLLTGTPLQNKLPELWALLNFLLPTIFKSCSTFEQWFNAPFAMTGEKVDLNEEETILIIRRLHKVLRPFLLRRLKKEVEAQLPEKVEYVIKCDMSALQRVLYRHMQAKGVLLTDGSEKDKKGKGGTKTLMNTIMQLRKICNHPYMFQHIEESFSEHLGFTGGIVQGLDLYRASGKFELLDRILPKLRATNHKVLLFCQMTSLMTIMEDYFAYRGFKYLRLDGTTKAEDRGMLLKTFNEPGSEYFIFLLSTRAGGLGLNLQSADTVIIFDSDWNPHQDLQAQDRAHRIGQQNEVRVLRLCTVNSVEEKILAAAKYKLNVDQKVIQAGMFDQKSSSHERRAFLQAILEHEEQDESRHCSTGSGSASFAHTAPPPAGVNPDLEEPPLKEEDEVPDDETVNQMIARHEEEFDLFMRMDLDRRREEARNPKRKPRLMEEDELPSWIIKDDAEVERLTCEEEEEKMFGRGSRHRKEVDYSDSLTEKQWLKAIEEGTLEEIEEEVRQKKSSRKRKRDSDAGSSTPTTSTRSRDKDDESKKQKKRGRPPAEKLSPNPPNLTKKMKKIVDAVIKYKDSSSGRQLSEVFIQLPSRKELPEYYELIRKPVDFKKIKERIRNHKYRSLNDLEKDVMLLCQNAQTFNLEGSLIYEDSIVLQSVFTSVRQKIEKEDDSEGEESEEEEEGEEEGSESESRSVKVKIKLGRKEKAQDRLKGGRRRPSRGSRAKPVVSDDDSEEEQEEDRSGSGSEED
Sequence (P40337 whole entry): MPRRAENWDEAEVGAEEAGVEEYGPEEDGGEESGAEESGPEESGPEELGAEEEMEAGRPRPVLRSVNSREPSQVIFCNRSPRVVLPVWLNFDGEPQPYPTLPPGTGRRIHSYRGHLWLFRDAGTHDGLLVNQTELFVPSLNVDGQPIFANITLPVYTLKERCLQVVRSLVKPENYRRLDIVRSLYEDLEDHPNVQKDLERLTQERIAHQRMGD
Test readout: log10 DC50 (log10 of the value in nM)
Units before log transform: nM; reported quantity: DC50; transform: log10.

The following compounds have reported results that may help.
Item smiles	Test readout	Observed value
Cc1ncsc1-c1ccc([C@H](C)NC(=O)[C@@H]2C[C@@H](O)CN2C(=O)[C@@H](c2cc(OCCN3CCN(CCOc4cc(N5C6CCC5CN(c5cc(-c7ccccc7O)nnc5N)C6)ccn4)CC3)no2)C(C)C)cc1	log10 DC50	0.18
Cc1ncsc1-c1ccc([C@H](C)NC(=O)[C@@H]2C[C@@H](O)CN2C(=O)[C@@H](c2cc(N3CCC(CN4CCC(Oc5cc(N6C7CCC6CN(c6cc(-c8ccccc8O)nnc6N)C7)ccn5)CC4)CC3)no2)C(C)C)cc1	log10 DC50	0.00
Cc1ncsc1-c1ccc(CNC(=O)[C@@H]2C[C@@H](O)CN2C(=O)[C@@H](c2cc(OCCOCCOCCOc3cc(N4C5CCC4CN(c4cc(-c6ccccc6O)nnc4N)C5)ccn3)no2)C(C)C)cc1	log10 DC50	0.77
Cc1ncsc1-c1ccc([C@H](C)NC(=O)[C@@H]2C[C@@H](O)CN2C(=O)[C@@H](c2cc(N3CCN(CCN4CCC(O[C@H]5C[C@H](Oc6cc(N7C8CCC7CN(c7cc(-c9ccccc9O)nnc7N)C8)ccn6)C5)CC4)CC3)no2)C(C)C)cc1	log10 DC50	0.51
Cc1ncsc1-c1ccc(CNC(=O)[C@@H]2C[C@@H](O)CN2C(=O)[C@@H](NC(=O)COCCOCCOCCOc2cc(N3C4CCC3CN(c3cc(-c5ccccc5O)nnc3N)C4)ccn2)C(C)(C)C)cc1	log10 DC50	2.85
Cc1ncsc1-c1ccc([C@H](C)NC(=O)[C@@H]2C[C@@H](O)CN2C(=O)[C@@H](c2cc(N3CCN(C[C@H]4C[C@H](Oc5cc(N6C7CCC6CN(c6cc(-c8ccccc8O)nnc6N)C7)ccn5)C4)CC3)no2)C(C)C)cc1	log10 DC50	0.11
Cc1ncsc1-c1ccc([C@H](C)NC(=O)[C@@H]2C[C@@H](O)CN2C(=O)[C@@H](c2cc(OCCN3CCN(CCOc4cc(N5C6CCC5CN(c5cc(-c7ccccc7O)nnc5N)C6)ccn4)C[C@@H]3C)no2)C(C)C)cc1	log10 DC50	0.43
Cc1ncsc1-c1ccc([C@H](C)NC(=O)[C@@H]2C[C@@H](O)CN2C(=O)[C@@H](c2cc(N3CCC(O[C@H]4C[C@H](Oc5cc(N6C7CCC6CN(c6cc(-c8ccccc8O)nnc6N)C7)ccn5)C4)CC3)no2)C(C)C)cc1	log10 DC50	0.26

For every listed record, write down its log10 DC50.
1. Cc1ncsc1-c1ccc(CNC(=O)[C@@H]2C[C@@H](O)CN2C(=O)[C@@H](c2cc(OCCN3CCN(CCOc4cc(N5C6CCC5CN(c5cc(-c7ccccc7O)nnc5N)C6)ccn4)CC3)no2)C(C)C)cc1
2. Cc1ncsc1-c1ccc([C@H](C)NC(=O)[C@@H]2C[C@@H](O)CN2C(=O)[C@@H](c2cc(N3CCN(CC4CCN(C[C@H]5C[C@H](Oc6cc(N7C8CCC7CN(c7cc(-c9ccccc9O)nnc7N)C8)ccn6)C5)CC4)CC3)no2)C(C)C)cc1

Response:
1. 0.98
2. 0.15

----------
assay: Drug concentration in mouse plasma measured for 24 hrs; type: ADME, cell-free
Provide the recorded concentration at 24 h for the entries that follow.
Answers are plain numbers, in nM.

Item smiles	Test readout	Observed value
Cc1ncsc1-c1ccc([C@H](C)NC(=O)[C@@H]2C[C@@H](O)CN2C(=O)[C@@H](c2cc(N3CCN(CCN4CCC(O[C@H]5C[C@H](Oc6cc(N7C8CCC7CN(c7cc(-c9ccccc9O)nnc7N)C8)ccn6)C5)CC4)CC3)no2)C(C)C)cc1	concentration at 24 h	108

// concentration at 24 h lookup, molecule = `Cc1ncsc1-c1ccc([C@H](C)NC(=O)[C@@H]2C[C@@H](O)CN2C(=O)[C@@H](c2cc(OCCN3CCN(CCOc4cc(N5C6CCC5CN(c5cc(-c7ccccc7O)nnc5N)C6)ccn4)[C@H](C)C3)no2)C(C)C)cc1` , result: 22

----------
test system: NCI-H1944; assay: Antiproliferative activity against BRM-dependent human NCI-H1944 cells assessed as growth inhibition incubated for 7 days by celltiter glo 2.0 assay; type: functional; conditions: NCI-H1944, 168 h, time 7 day
I'd be grateful if you could share measured GI50 for these entries.

Item smiles	GI50
Cc1ncsc1-c1ccc([C@H](C)NC(=O)[C@@H]2C[C@@H](O)CN2C(=O)[C@@H](c2cc(N3CCC(CN4CCC(O[C@H]5C[C@H](Oc6cc(N7C8CCC7CN(c7cc(-c9ccccc9)nnc7N)C8)ccn6)C5)CC4)CC3)no2)C(C)C)cc1	> 5 µM
COc1cc(N2CCN(c3cc(-c4ccccc4O)nnc3N)CC2)ccn1	> 0.3 µM
Cc1ncsc1-c1ccc([C@H](C)NC(=O)[C@@H]2C[C@@H](O)CN2C(=O)[C@@H](c2cc(N3CCC(O[C@H]4C[C@H](Oc5cc(N6C7CCC6CN(c6cc(-c8ccccc8O)nnc6N)C7)ccn5)C4)CC3)no2)C(C)C)cc1	0.0003 µM
COc1cc(N2C3CCC2CN(c2cc(-c4ccccc4O)nnc2N)C3)ccn1	> 0.3 µM

# batch: return GI50 for each of the 2 compounds below
1. Cc1ncsc1-c1ccc([C@H](C)NC(=O)[C@@H]2C[C@@H](O)CN2C(=O)[C@@H](c2cc(N3CCC(CN4CCC(Oc5cc(N6C7CCC6CN(c6cc(-c8ccccc8O)nnc6N)C7)ccn5)CC4)CC3)no2)C(C)C)cc1
2. Cc1ncsc1-c1ccc([C@H](C)NC(=O)[C@@H]2C[C@H](O)CN2C(=O)[C@@H](c2cc(OCCN3CCC(O[C@H]4C[C@H](Oc5cc(N6C7CCC6CN(c6cc(-c8ccccc8O)nnc6N)C7)ccn5)C4)CC3)no2)C(C)C)cc1

Response:
0.00023 µM
> 0.3 µM

----------
Please go through the items and note down their pIC50.
biological target: SWI/SNF-related matrix-associated actin-dependent regulator of chromatin subfamily A member 2 (Homo sapiens, UniProt P51531); experiment: Binding affinity to his-tagged BRM bromodomain (unknown origin) by alpha-LISA assay
Sequence (P51531 whole entry): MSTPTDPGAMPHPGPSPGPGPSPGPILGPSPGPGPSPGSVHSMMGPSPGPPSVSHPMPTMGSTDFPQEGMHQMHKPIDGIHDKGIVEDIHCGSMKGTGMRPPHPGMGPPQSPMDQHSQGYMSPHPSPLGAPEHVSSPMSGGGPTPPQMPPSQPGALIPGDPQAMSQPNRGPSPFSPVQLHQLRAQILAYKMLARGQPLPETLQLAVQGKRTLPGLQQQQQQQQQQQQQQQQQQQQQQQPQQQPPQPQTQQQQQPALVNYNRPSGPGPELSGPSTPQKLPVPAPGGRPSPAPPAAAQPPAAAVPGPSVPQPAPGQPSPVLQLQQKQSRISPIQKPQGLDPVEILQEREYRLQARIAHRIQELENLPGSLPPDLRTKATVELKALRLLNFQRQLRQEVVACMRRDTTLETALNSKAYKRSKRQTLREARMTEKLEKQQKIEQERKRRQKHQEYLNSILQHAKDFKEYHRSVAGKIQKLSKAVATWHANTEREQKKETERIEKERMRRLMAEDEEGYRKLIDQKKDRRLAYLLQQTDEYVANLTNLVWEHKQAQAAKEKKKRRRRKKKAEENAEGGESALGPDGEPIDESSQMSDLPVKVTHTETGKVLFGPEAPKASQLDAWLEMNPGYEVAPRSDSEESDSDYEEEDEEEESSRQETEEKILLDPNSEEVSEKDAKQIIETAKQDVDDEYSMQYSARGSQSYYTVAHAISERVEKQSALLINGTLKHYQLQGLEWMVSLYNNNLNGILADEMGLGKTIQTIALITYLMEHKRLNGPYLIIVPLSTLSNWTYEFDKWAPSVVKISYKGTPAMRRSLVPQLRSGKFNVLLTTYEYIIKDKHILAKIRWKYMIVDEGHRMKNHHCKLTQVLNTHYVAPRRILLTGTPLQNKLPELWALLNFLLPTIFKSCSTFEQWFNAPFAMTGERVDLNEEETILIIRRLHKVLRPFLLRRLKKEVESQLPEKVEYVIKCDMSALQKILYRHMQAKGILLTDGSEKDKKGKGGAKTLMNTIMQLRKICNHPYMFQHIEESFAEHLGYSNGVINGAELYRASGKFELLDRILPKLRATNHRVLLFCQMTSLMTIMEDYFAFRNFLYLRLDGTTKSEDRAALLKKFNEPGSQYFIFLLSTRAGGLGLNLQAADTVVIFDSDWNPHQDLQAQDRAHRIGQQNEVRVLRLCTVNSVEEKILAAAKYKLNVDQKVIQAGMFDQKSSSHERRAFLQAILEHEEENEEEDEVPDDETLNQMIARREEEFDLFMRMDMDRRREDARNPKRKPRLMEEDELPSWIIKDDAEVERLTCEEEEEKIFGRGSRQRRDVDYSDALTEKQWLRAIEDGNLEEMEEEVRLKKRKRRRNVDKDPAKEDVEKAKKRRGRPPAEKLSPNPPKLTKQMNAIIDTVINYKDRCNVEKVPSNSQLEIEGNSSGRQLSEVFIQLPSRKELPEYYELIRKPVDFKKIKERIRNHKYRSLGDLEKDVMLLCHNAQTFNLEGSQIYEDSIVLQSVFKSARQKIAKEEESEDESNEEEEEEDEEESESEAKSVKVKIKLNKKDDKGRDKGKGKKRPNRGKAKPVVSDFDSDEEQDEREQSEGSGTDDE
Give bare numbers, as −log10 of the molar value.

> print(dat)
                                item.smiles  observed.value
1  COc1cc(N2CCN(c3cc(-c4ccccc4O)nnc3N)CC2)ccn1            7.74
2  COc1cc(N2C3CCC2CN(c2cc(-c4ccccc4O)nnc2N)C3)ccn1            8.92

Switching to the query record.
In plain terms, `COCCOc1cc(N2C3CCC2CN(c2cc(-c4ccccc4O)nnc2N)C3)ccn1` has a documented pIC50 of 8.57
